Assay: Cytotoxicity against human NFF assessed as growth inhibition at 50 uM after 3 days by sulforhodamine B assay
Type: cell-based
Conditions: NFF cells, read-out: GI
MEASURED ATTRIBUTE: inhibition at 72 h, 50 µM (%)
Give bare numbers, in %.

Query string: Name the recorded inhibition at 72 h, 50 µM for COc1cc(OC)c2c(c1OC)O[C@@H](c1ccccc1)[C@H]1[C@@H]2Oc2c(OC)c(OC)cc(OC)c2[C@@H]1/C=C/c1ccccc1 (relative stereo) .
Result string: 46.9

---

Experiment: Cytotoxicity against human NFF assessed as growth inhibition at 100 uM after 3 days by sulforhodamine B assay
Format: cell-based
Conditions: NFF cells, read-out: GI
Threshold rule: inhibition at 72 h, 100 µM greater than or equal to 50% is rule met; below that, rule not met.

Below are worked cases with known answers.
# COMPOUND STRUCTURE, LABEL CLASS
measured = [
    ("COc1ccc2c(c1)C[C@@H]1[C@H](/C=C/c3ccc(Cl)cc3)c3cc(OC)ccc3O[C@]1(c1ccc(Cl)cc1)O2", "rule not met"),
    ("COc1cccc2c1C[C@@H]1[C@H](/C=C/c3ccc(C)cc3)c3c(OC)cccc3O[C@]1(c1ccc(C)cc1)O2", "rule met"),
    ("COc1ccc(/C=C/[C@@H]2c3c(OC)cccc3O[C@]3(c4ccc(OC)cc4)Oc4cccc(OC)c4C[C@H]23)cc1", "rule met"),
    ("COc1cccc2c1C[C@@H]1[C@H](/C=C/c3ccc(Br)cc3)c3c(OC)cccc3O[C@]1(c1ccc(Br)cc1)O2", "rule not met"),
    ("COc1cccc2c1C[C@@H]1[C@H](/C=C/c3ccc(Cl)cc3)c3c(OC)cccc3O[C@]1(c1ccc(Cl)cc1)O2", "rule met"),
]

Query string: Form field: inhibition at 72 h, 100 µM at least 50%? Entry: `COc1ccc2c(c1)C[C@@H]1[C@H](/C=C/c3ccc(C)cc3)c3cc(OC)ccc3O[C@]1(c1ccc(C)cc1)O2`
Result string: rule not met

Cited source: ChEMBL document CHEMBL1944576
